From: patent US6528494B2

Target: adenosine 3 receptor (Homo sapiens)
Sequence (P0DMS8 1-318): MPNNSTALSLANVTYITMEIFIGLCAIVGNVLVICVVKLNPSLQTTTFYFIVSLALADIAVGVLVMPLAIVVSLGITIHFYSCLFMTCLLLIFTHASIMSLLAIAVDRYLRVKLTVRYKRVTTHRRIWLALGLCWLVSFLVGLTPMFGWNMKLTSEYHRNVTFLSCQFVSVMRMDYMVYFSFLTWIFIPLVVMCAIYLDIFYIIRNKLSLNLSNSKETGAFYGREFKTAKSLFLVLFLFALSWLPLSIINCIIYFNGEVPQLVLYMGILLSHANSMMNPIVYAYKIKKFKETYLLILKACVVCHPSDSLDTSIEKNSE
Test: Agonist activity against adenosine 3 receptor (CHO cells, forskolin-enhanced cAMP/SPAP reporter)
Format: cell-based
Conditions: CHO cells transfected with human receptor; forskolin-enhanced cAMP via SPAP; mean of all the versions tested
Assay Endpoint: A3 EC50 as a ratio of that of NECA

Compound	Result
CCC(CC)Nc1nc(NCCc2cn(C)cn2)nc2c1ncn2[C@@H]1O[C@H](c2nnn(C)n2)[C@@H](O)[C@H]1O.O=CO	>172
Cn1nnc(C2OC(n3cnc4c(NCc5cccc(I)c5)nc(NCCN5CCCC5)nc43)C(O)C2O)n1.O=CO.O=CO (stereo not shown)	>201
CCn1nnc([C@H]2O[C@@H](n3cnc4c(N)nc(NCCNc5ccccn5)nc43)[C@H](O)[C@@H]2O)n1.O=C(O)C(F)(F)F	>435
CCn1nnc([C@H]2O[C@@H](n3cnc4c(N)nc(Nc5ccc(F)cc5)nc43)[C@H](O)[C@@H]2O)n1.O=C(O)C(F)(F)F	>232
Cn1nnc(C2OC(n3cnc4c(NCc5cccc(I)c5)nc(NCCN5CCCCC5)nc43)C(O)C2O)n1 (stereo not shown)	>201
Cn1cnc(CCNc2nc(NC(CO)Cc3ccccc3)c3ncn(C4OC(c5nnn(C)n5)C(O)C4O)c3n2)c1 (stereo not shown)	>100
CCn1nnc(C2OC(n3cnc4c(NCC(c5ccccc5)c5ccccc5)nc(NCCNC(=N)N)nc43)C(O)C2O)n1 (stereo not shown)	>189
